Assay: Number of mouse death after 10 mg/kg compound intra venous administration; n=3
Format: ADME, organism-based
Design: dose 10 mg/kg
Conditions: in vivo, iv
ENDPOINT_LABEL: Mortality
Respond using a number only.

Mortality reported for this compound Cl.Cl.N=C(N)N1CCc2ccc(OCC3(C(=O)O)CCN(c4ccncc4)CC3)cc2C1 : 0

Mortality reported for this compound Cc1cc(N2CCC(COc3ccc4c(c3)CN(C(=N)N)CC4)(C(=O)O)CC2)ccn1.Cl.Cl : 0

Mortality reported for this compound Cl.Cl.N=C(N)N1CCc2ccc(OCC3CCN(c4ccncc4CCC(=O)O)CC3)cc2C1 : 0

Mortality reported for this compound Cl.Cl.N=C(N)N1CCc2ccc(OCC3(C(=O)O)CCN(c4ccncn4)CC3)cc2C1 : 0

Mortality reported for this compound CCOC(=O)C1(COc2ccc3c(c2)CN(C(=N)N)CC3)CCN(c2ccncc2)CC1.Cl.Cl : 3

---

Experiment: Maximum concentration in monkey plasma after 10 mg/kg oral administration at 120 min
Type: ADME, organism-based
Design: dose 10 mg/kg, route oral
Conditions: cercopithecidae
ENDPOINT_LABEL: Cmax (ng/mL)
Field format: number, assumed ng/mL, no unit text.

Cmax reported for this compound N=C(N)N1CCc2ccc(OCC3(C(=O)O)CCN(c4ccncc4)CC3)cc2C1.O=S(O)O : 391

---

Assay: Mean inhibitory concentration against trypsin; n=3
ENDPOINT_LABEL: Ki
Show the value, then the unit it is measured in.

Ki reported for this compound N=C(N)N1CCc2ccc(OCC3(C(=O)O)CCN(c4ccncc4)CC3)cc2C1.O=S(O)O : 13.6 µM

Ki reported for this compound CC(=N)N1CCC(Oc2ccc(C(Cc3ccc4cc[n+](C(=N)N)cc4c3)C(=O)O)cc2)C1 (configuration not stated) : 0.62 µM

---

Experiment: Mean inhibitory concentration against thrombin; n=3
Please respond with reported Ki for every item in the list.

Ki reported for this compound N=C(N)N1CCc2ccc(OCC3(C(=O)O)CCN(c4ccncc4)CC3)cc2C1.O=S(O)O : > 100 µM

Ki reported for this compound CC(=N)N1CCC(Oc2ccc(C(Cc3ccc4cc[n+](C(=N)N)cc4c3)C(=O)O)cc2)C1 (configuration not stated) : > 100 µM

---

Biological target: Plasminogen (Homo sapiens)
Sequence (P00747 97-580 limits assumed): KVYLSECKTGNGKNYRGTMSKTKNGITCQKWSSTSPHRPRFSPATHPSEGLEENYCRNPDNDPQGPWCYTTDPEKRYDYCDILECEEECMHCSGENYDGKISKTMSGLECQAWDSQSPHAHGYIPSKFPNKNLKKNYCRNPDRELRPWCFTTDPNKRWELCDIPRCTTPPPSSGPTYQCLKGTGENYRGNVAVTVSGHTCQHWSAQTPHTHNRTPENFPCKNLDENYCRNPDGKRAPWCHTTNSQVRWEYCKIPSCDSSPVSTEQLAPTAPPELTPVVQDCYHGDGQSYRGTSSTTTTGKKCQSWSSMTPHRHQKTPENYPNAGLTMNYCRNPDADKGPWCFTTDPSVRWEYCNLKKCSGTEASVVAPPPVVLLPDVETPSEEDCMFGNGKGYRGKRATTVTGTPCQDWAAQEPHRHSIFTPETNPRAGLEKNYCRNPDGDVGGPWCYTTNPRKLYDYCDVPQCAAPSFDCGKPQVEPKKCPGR
Sequence (P00747 581-810 limits assumed): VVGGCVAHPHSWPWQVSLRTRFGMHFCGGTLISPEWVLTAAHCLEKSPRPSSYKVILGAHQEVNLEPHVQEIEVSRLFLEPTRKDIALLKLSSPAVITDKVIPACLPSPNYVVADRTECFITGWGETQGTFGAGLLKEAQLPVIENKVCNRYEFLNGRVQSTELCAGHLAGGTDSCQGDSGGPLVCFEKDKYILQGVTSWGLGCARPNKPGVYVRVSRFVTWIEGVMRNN
ENDPOINT_LABEL: Ki (µM)
Field format: number, assumed µM, no unit text.

Item N=C(N)N1CCc2ccc(OCC3(C(=O)O)CCN(c4ccncc4)CC3)cc2C1.O=S(O)O ; assay system Plasminogen (Homo sapiens); Ki reported as 78.2

---

Experiment: Mean inhibitory concentration against coagulation factor X; n=3
ENDPOINT_LABEL: pKi
Quick note: pKi means taking -log10 of the concentration in moles per liter.

pKi reported for this molecule N=C(N)N1CCc2ccc(OCC3(C(=O)O)CCN(c4ccncc4)CC3)cc2C1.O=S(O)O : 7.72

---

Assay: Number of mouse death after 10 mg/kg compound intravenous administration; n=3
Assay type: ADME, organism-based
Parameters: dose 10 mg/kg, route intravenous
Details: in vivo
ENDPOINT_LABEL: Mortality
Respond using a number only.

Mortality reported for this compound CC(=N)N1CCC(COc2ccc3c(c2)CN(C(=N)N)CC3)CC1.Cl.Cl : 3

Mortality reported for this compound Cl.Cl.N=C(N)N1CCc2ccc(OCC3CCN(c4ccnc5ccccc45)CC3)cc2C1 : 3

Mortality reported for this compound Cl.Cl.N=C(N)N1CCc2ccc(OCC3CCN(c4ccncc4C(=O)O)CC3)cc2C1 : 0

Mortality reported for this compound Cl.Cl.N=C(N)N1CCc2ccc(OCC3CCN(c4ccncc4)CC3)cc2C1 : 3

Mortality reported for this compound COC(=O)c1cnccc1N1CCC(COc2ccc3c(c2)CN(C(=N)N)CC3)CC1.Cl.Cl : 3

Mortality reported for this compound CCOC(=O)CCc1cnccc1N1CCC(COc2ccc3c(c2)CN(C(=N)N)CC3)CC1.Cl.Cl : 3
